MEASUREMENT_TARGET: Human KDR (residues 790-1356) (Homo sapiens (Human), UniProt P35968)
Sequence (P35968 790-1356): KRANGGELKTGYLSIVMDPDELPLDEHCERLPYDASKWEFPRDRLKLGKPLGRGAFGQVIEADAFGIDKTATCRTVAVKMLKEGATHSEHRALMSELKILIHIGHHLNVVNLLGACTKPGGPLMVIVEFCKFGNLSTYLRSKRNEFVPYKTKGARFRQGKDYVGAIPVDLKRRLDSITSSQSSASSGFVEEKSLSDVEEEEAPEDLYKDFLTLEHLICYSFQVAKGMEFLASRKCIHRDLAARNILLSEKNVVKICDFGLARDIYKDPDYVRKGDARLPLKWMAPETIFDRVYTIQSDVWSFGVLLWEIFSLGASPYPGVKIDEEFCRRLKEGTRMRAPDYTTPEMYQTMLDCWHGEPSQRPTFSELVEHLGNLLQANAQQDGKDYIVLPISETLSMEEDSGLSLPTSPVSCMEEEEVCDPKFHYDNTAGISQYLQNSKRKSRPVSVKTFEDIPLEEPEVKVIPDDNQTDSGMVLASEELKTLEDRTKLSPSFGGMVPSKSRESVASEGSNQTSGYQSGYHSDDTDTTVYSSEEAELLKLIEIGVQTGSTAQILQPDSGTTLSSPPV
ASSAY_METHOD_TEXT: Human KDR kinase assay, HTRF KinEase (Example B-2)
Format: biochemical
CONDITION_PARAMETERS: protocol of Example B-2 (other compounds)
pIC50: −log10 of the molar value. Where a name gives a salt, the structure may show the parent alone.

>  <COMPOUND>
COc1cc2nccc(Oc3ccc(NC(=O)c4cn(C)c(CO)c(-c5ccc(F)cc5)c4=O)cc3)c2nc1OC [Compound 221]

>  <pIC50>
6.52 to 7.00

$$$$
>  <COMPOUND>
COc1cc2nccc(Oc3ccc(NC(=O)c4cn(C)c(C)c(-c5cccc(F)c5)c4=O)cc3F)c2nc1OC [Compound 37, hydrochloride]

>  <pIC50>
6.52 to 7.00

$$$$
>  <COMPOUND>
COc1ccc2nccc(Oc3ccc(NC(=O)c4cn(C(C)C)c(C)c(-c5ccc(F)cc5)c4=O)cc3)c2n1 [Compound 341]

>  <pIC50>
< 6.52

$$$$
>  <COMPOUND>
COc1cc2nccc(Oc3ccc(NC(=O)c4cnc(C)c(-c5ccc(F)cc5)c4O)cc3F)c2nc1OCCCN1CCOCC1 [Compound 424]

>  <pIC50>
> 7.00

$$$$

---

MEASUREMENT_TARGET: Human MER (residues 528-999) (Homo sapiens (Human))
ASSAY_METHOD_TEXT: Human Mer kinase assay, HTRF KinEase (Example C-2)
Assay type: biochemical
CONDITION_PARAMETERS: protocol of Example C-2 (other compounds)
Listing: IC50 of selected compounds
ENDPOINT_LABEL: IC50

>  <COMPOUND>
COc1cnc2c(Oc3ccc(NC(=O)c4ccc(C)n(-c5ccc(F)cc5C)c4=O)cc3)ccnc2c1 [Compound 226]

>  <ENDPOINT_LABEL>
IC50

>  <EXPERIMENTAL_RESULT>
< 100 nM

$$$$
>  <COMPOUND>
COc1cc2nccc(Oc3ccc(NC(=O)c4c(C)cc(C)n(-c5ccc(F)cc5)c4=O)cc3F)c2nc1OC [Compound 279]

>  <ENDPOINT_LABEL>
IC50

>  <EXPERIMENTAL_RESULT>
< 100 nM

$$$$
>  <COMPOUND>
COc1cnc2c(Oc3ccc(NC(=O)c4cn(C)c(Cl)c(-c5ccc(F)cc5)c4=O)cc3F)ccnc2c1 [Compound 411]

>  <ENDPOINT_LABEL>
IC50

>  <EXPERIMENTAL_RESULT>
< 100 nM

$$$$
>  <COMPOUND>
COc1cnc2c(Oc3ccc(NC(=O)c4c(C)cc(C)n(-c5ccc(F)cc5)c4=O)cc3)ccnc2c1 [Compound 289]

>  <ENDPOINT_LABEL>
IC50

>  <EXPERIMENTAL_RESULT>
< 100 nM

$$$$
>  <COMPOUND>
COc1cc2nccc(Oc3ccc(NC(=O)c4cn(C5CC5)c(C)c(-c5ccc(F)cc5C)c4=O)cc3)c2nc1OC [Compound 440]

>  <ENDPOINT_LABEL>
IC50

>  <EXPERIMENTAL_RESULT>
< 100 nM

$$$$
>  <COMPOUND>
Cc1ncc(C(=O)Nc2ccc(Oc3ccnc4cc(F)cnc34)c(F)c2)c(O)c1-c1ccc(F)cc1 [Compound 160]

>  <ENDPOINT_LABEL>
IC50

>  <EXPERIMENTAL_RESULT>
< 100 nM

$$$$
>  <COMPOUND>
COc1cnc2c(Oc3ccc(NC(=O)c4ccc(C)n(-c5ccc(F)cc5)c4=O)cc3F)ccnc2c1 [Compound 83]

>  <ENDPOINT_LABEL>
IC50

>  <EXPERIMENTAL_RESULT>
< 100 nM

$$$$

---

MEASUREMENT_TARGET: Mer (phospho-Mer, MERTK-transfected 293A cells) (Homo sapiens (Human))
Sequence (Q12866 21-999): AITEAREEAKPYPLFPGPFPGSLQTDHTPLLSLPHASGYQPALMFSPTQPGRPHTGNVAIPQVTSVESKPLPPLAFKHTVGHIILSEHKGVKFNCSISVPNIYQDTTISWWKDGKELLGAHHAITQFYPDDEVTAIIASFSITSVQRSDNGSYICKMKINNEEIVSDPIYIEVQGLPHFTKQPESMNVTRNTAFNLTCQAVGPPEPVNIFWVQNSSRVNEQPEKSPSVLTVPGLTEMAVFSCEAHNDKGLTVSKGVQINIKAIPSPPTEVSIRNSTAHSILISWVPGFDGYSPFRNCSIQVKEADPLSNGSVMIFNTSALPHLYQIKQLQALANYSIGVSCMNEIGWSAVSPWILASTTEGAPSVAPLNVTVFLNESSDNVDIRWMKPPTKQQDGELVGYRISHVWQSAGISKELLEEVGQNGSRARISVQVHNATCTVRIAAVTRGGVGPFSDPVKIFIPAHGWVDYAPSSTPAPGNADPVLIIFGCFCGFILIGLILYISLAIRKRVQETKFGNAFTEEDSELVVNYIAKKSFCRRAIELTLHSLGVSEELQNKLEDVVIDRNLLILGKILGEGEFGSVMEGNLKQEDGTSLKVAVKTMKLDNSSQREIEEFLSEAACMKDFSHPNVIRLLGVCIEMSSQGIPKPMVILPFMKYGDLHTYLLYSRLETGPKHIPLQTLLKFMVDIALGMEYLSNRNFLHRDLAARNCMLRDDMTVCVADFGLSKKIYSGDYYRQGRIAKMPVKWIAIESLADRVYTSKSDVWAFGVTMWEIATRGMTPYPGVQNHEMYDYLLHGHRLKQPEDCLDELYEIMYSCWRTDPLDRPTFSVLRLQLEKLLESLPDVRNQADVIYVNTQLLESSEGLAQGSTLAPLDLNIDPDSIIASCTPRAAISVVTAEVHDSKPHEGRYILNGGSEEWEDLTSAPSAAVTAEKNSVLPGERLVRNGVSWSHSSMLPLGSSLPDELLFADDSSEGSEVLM
ASSAY_METHOD_TEXT: Mer autophosphorylation ELISA in transient transfected 293A cells (Example H)
Format: cell-based
CONDITION_PARAMETERS: cellular activity; Mer autophosphorylation ELISA in transient transfected 293A cells
Structures can show the parent of a compound that is named as a salt.

>  <COMPOUND>
COc1cnc2c(Oc3ccc(NC(=O)c4cn(C(F)F)c(C)c(-c5ccc(F)cc5)c4=O)cc3F)ccnc2c1

>  <IC50>
< 0.1 µM

$$$$
>  <COMPOUND>
Cc1cc(F)ccc1-c1c(C)nc(C)c(C(=O)Nc2ccc(Oc3ccnc4cc(C)c(F)nc34)c(F)c2)c1O

>  <IC50>
< 0.1 µM

$$$$
>  <COMPOUND>
CCn1cc(C(=O)Nc2ccc(Oc3ccnc4cc(OC)c(OC)nc34)c(F)c2)c(=O)c(-c2ccc(F)cc2)c1C

>  <IC50>
< 0.1 µM

$$$$
>  <COMPOUND>
COc1cc2nccc(Oc3ccc(NC(=O)c4cn(C(C)C)c(C)c(-c5ccccc5)c4=O)cc3F)c2nc1OC [Compound 29, hydrochloride]

>  <IC50>
< 0.1 µM

$$$$

---

MEASUREMENT_TARGET: Human MER (residues 528-999) (Homo sapiens (Human))
ASSAY_METHOD_TEXT: Human Mer kinase assay, HTRF KinEase (Example C-2)
Assay type: biochemical
CONDITION_PARAMETERS: protocol of Example C-2 (other compounds)
Listing: IC50 of selected compounds

>  <STRUCTURE_AS_SMILES>
COCc1nc(C)c(-c2ccc(F)cc2)c(O)c1C(=O)Nc1ccc(Oc2ccnc3cc(OC)c(OC)nc23)c(F)c1

>  <IC50>
< 100 nM

$$$$
>  <STRUCTURE_AS_SMILES>
COc1cnc2c(Oc3ccc(NC(=O)c4cn(C(C)(C)C)c(C)c(-c5ccc(F)cc5)c4=O)cc3F)ccnc2c1

>  <IC50>
< 100 nM

$$$$
>  <STRUCTURE_AS_SMILES>
COc1cc2nccc(Oc3ccc(NC(=O)c4c(C)ncc(-c5ccc(F)cc5)c4O)cc3F)c2nc1OC

>  <IC50>
< 100 nM

$$$$
>  <STRUCTURE_AS_SMILES>
COc1ccc2nccc(Oc3ccc(NC(=O)c4ccc(C)n(-c5ccc(F)cc5C)c4=O)cc3)c2n1

>  <IC50>
< 100 nM

$$$$
>  <STRUCTURE_AS_SMILES>
COc1ccc2nccc(Oc3ccc(NC(=O)c4cn(C)c(CO)c(-c5ccc(F)cc5)c4=O)cc3F)c2n1

>  <IC50>
< 100 nM

$$$$
>  <STRUCTURE_AS_SMILES>
Cc1ccc(C(=O)Nc2ccc(Oc3ccnc4ccc(OCCN5CCOCC5)nc34)c(F)c2)c(=O)n1-c1ccc(F)cc1

>  <IC50>
< 100 nM

$$$$
>  <STRUCTURE_AS_SMILES>
COc1ccc2nccc(Oc3ccc(NC(=O)c4c(C)cc(C)n(-c5ccc(F)cc5)c4=O)cc3)c2n1

>  <IC50>
< 100 nM

$$$$

---

MEASUREMENT_TARGET: KDR (phospho-KDR, VEGF165-stimulated HUVEC cells) (Homo sapiens (Human))
Sequence (P35968 20-1356): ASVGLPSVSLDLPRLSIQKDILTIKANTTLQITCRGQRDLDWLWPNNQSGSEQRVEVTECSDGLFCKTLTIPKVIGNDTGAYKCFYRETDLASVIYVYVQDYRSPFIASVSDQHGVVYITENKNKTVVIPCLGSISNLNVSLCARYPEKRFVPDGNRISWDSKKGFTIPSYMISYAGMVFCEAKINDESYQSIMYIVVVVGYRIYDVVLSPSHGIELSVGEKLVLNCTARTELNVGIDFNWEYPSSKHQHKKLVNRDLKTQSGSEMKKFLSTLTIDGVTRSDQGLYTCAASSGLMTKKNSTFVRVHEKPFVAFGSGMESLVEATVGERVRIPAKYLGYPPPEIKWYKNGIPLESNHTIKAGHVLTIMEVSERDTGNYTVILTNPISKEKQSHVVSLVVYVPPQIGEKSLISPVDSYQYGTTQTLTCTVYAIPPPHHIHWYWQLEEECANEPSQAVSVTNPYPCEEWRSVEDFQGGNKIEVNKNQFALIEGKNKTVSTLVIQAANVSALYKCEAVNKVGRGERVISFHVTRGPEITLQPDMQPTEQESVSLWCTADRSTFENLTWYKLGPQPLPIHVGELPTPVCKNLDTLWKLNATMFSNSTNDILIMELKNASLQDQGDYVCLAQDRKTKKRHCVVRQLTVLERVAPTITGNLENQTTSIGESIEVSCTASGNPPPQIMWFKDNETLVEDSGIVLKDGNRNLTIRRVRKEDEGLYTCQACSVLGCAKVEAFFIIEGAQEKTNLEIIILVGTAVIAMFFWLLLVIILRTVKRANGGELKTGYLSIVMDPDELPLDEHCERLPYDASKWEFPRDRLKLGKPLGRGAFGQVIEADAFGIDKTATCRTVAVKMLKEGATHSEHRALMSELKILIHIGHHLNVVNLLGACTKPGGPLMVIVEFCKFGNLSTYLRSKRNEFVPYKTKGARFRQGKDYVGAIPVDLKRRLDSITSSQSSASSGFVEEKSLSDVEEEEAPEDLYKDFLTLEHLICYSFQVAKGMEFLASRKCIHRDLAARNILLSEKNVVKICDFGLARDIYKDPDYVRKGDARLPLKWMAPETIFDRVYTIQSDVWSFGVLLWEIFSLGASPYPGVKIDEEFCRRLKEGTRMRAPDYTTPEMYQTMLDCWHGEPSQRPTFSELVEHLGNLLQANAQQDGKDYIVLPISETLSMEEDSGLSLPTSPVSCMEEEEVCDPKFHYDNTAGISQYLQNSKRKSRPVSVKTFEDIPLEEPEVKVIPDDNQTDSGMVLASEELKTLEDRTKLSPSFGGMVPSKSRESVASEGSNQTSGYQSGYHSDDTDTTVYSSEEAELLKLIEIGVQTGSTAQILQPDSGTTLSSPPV
ASSAY_METHOD_TEXT: KDR autophosphorylation ELISA in HUVEC cells (Example G)
Assay type: cell-based
CONDITION_PARAMETERS: cellular activity; KDR autophosphorylation ELISA in HUVEC cells
Where a name gives a salt, the structure may show the parent alone.

>  <MOLECULE>
Cc1nc2c(Oc3ccc(NC(=O)c4cnc(C)c(-c5ccc(F)cc5)c4O)cc3)ccnc2cc1-c1cnn(C(F)F)c1 [Compound 617, hydrochloride]

>  <IC50>
< 100 nM

$$$$
>  <MOLECULE>
COc1cc2nccc(Oc3ccc(NC(=O)c4nnc(C)c(-c5ccc(F)cc5)c4Cl)cc3F)c2nc1OC

>  <IC50>
> 300 nM

$$$$
>  <MOLECULE>
C=C(C)c1cnc2c(Oc3ccc(NC(=O)c4cnc(C)c(-c5ccc(F)cc5C)c4O)cc3)ccnc2c1

>  <IC50>
< 100 nM

$$$$
>  <MOLECULE>
COc1cnc2c(Oc3ccc(NC(=O)c4cnc(C)c(-c5ccc(F)c(C)c5)c4O)cc3F)ccnc2c1

>  <IC50>
< 100 nM

$$$$

---

Listing: IC50 of selected compounds
MEASUREMENT_TARGET: Human MER (residues 528-999) (Homo sapiens (Human), UniProt Q12866)
Sequence (Q12866 528-999): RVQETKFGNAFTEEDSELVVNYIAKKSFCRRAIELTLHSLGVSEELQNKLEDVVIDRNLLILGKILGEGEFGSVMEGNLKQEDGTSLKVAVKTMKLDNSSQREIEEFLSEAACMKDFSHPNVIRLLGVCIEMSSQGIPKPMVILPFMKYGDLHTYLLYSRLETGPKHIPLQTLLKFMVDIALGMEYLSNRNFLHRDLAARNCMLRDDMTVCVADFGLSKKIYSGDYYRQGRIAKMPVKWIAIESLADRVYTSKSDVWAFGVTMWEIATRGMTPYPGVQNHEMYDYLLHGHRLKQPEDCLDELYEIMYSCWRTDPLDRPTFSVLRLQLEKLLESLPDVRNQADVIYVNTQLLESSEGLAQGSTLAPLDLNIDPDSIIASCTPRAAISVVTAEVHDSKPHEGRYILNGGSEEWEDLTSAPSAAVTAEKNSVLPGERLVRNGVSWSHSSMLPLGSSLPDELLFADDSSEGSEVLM
ASSAY_METHOD_TEXT: Human Mer kinase assay, HTRF KinEase (Example C-2)
Format: biochemical
CONDITION_PARAMETERS: protocol of Example C-2
Counter-ions that a name gives are not always drawn.

>  <COMPOUND>
COc1cc2nccc(Oc3ccc(NC(=O)c4c(C)c(C)nn(-c5ccc(F)cc5)c4=O)cc3F)c2nc1OC

>  <IC50>
< 100 nM

$$$$
>  <COMPOUND>
COc1cc2nccc(Oc3ccc(NC(=O)c4cnc(N)n(-c5ccc(F)cc5)c4=O)cc3F)c2nc1OC

>  <IC50>
< 100 nM

$$$$
>  <COMPOUND>
Cc1nc2c(Oc3ccc(NC(=O)c4cnc(C)c(-c5ccc(F)cc5)c4O)cc3F)ccnc2cc1-c1cnn(C(F)F)c1 [Compound 615, hydrochloride]

>  <IC50>
< 100 nM

$$$$
>  <COMPOUND>
CCc1ncc(C(=O)Nc2ccc(Oc3ccnc4cc(OC)c(OC)nc34)c(F)c2)c(O)c1-c1ccc(F)cc1

>  <IC50>
< 100 nM

$$$$
>  <COMPOUND>
C=C(C)c1cnc2c(Oc3ccc(NC(=O)c4cnc(C)c(-c5ccc(F)cc5C)c4O)cc3F)ccnc2c1

>  <IC50>
< 100 nM

$$$$
>  <COMPOUND>
CNc1c(-c2ccc(F)cc2)c(=O)c(C(=O)Nc2ccc(Oc3ccnc4cc(OC)cnc34)c(F)c2)cn1C

>  <IC50>
< 100 nM

$$$$
>  <COMPOUND>
COc1cnc2c(Oc3ccc(NC(=O)c4cn(CCO)c(C)c(-c5ccc(F)cc5)c4=O)cc3F)ccnc2c1

>  <IC50>
< 100 nM

$$$$
>  <COMPOUND>
COc1cc2nccc(Oc3ccc(NC(=O)c4c(C)n(C)c(C)c(-c5ccc(F)cc5)c4=O)cc3)c2nc1OC

>  <IC50>
< 100 nM

$$$$
>  <COMPOUND>
C=C(C)c1cnc2c(Oc3ccc(NC(=O)c4cnc(C)c(-c5ccc(F)cc5)c4O)cc3)ccnc2c1

>  <IC50>
< 100 nM

$$$$
>  <COMPOUND>
COc1cc2nccc(Oc3ccc(NC(=O)c4cn(CCO)c(C)c(-c5ccc(F)cc5)c4=O)cc3F)c2nc1OC

>  <IC50>
< 100 nM

$$$$
>  <COMPOUND>
COc1cnc2c(Oc3ccc(NC(=O)c4ccnn(-c5ccc(F)cc5C)c4=O)cc3)ccnc2c1

>  <IC50>
100 to 300 nM

$$$$
>  <COMPOUND>
Cc1nc(C)c(-c2ccc(F)cc2)c(O)c1C(=O)Nc1ccc(Oc2ccnc3cc(C(C)C)cnc23)c(F)c1

>  <IC50>
< 100 nM

$$$$
>  <COMPOUND>
CNC(=O)c1cnc2c(Oc3ccc(NC(=O)c4cnc(C)c(-c5ccc(F)cc5)c4O)cc3F)ccnc2c1

>  <IC50>
< 100 nM

$$$$
>  <COMPOUND>
COc1cnc2c(Oc3ccc(NC(=O)c4nn(C(C)C)c(C)c(-c5ccc(F)cc5)c4=O)cc3F)ccnc2c1

>  <IC50>
< 100 nM

$$$$
